Source: ChEMBL document CHEMBL2311526

Kindly supply the reported IC50 values for the records listed here.
Target: UniProtKB Q8T6T2
Sequence (Q8T6T2 whole entry): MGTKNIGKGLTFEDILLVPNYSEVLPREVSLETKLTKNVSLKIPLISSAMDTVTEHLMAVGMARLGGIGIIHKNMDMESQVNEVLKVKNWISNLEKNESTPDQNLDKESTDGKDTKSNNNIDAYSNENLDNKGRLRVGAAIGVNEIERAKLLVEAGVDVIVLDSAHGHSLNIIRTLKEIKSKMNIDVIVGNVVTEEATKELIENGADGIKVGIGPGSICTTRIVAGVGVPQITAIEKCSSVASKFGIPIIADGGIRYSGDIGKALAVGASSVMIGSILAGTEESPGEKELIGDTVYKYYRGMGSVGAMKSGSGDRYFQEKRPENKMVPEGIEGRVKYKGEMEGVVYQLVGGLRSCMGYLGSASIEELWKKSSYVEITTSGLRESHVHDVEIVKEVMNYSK
Assay: Inhibition of recombinant Cryptosporidium parvum IMPDH assessed as production of NADH by fluorescence assay in presence of 0.05% BSA
Give bare numbers, in nM.

# Line Notation, Assayed Target, IC50 [nM]
data = [
    ("Cc1cc2cc(NC(=O)Cc3nn(C)c(=O)c4ccccc34)ccc2o1", "UniProtKB Q8T6T2", 72),
    ("Cn1nc(CC(=O)Nc2ccc3oc4ccccc4c3c2)c2ccccc2c1=O", "UniProtKB Q8T6T2", 30),
    ("Cc1cc(NC(=O)Cc2nn(C)c(=O)c3ccccc23)ccc1Br", "UniProtKB Q8T6T2", 140),
    ("Cn1nc(CC(=O)Nc2ccc3ccccc3c2)c2ccccc2c1=O", "UniProtKB Q8T6T2", 140),
]

Okay, next one:
stdin: Could you tell me which IC50 is on file for COc1ccc(NC(=O)Cc2nn(C)c(=O)c3ccccc23)cc1 ?
stdout: 930

* * *

Biological target: UniProtKB Q8T6T2
Assay: Inhibition of recombinant Cryptosporidium parvum IMPDH assessed as production of NADH by fluorescence assay in presence of 0.05% BSA
Observable: IC50 (µM)
Numbers only, in µM.

# Line Notation, Observable, Result Unit, Assay Value
measured = [
    ("Cc1cc(NC(=O)Cc2nn(C)c(=O)c3ccccc23)ccc1C#N", "IC50", "µM", 0.46),
]

Dear reader, for each entry below, please note its IC50.
1. Cn1nc(CC(=O)Nc2ccc(Cl)c(C(F)(F)F)c2)c2ccccc2c1=O
2. Cn1nc(CC(=O)Nc2ccc3occc3c2)c2ccccc2c1=O
3. O=C(Cc1n[nH]c(=O)c2ccccc12)Nc1ccc(Br)c(C(F)(F)F)c1
4. Cn1nc(CC(=O)Nc2ccc(C#N)c(Cl)c2)c2ccccc2c1=O

stdout:
[0.025, 0.085, 0.13, 0.47]

I would be grateful if you could provide IC50 for each of the following entries.
1. Cn1nc(CC(=O)Nc2ccc3oc4c(c3c2)CCCC4)c2ccccc2c1=O
2. Cn1nc(CC(=O)Nc2ccc(C#N)c(C(F)(F)F)c2)c2ccccc2c1=O
3. Cn1nc(CC(=O)Nc2ccc(Cl)c(Cl)c2)c2ccccc2c1=O
4. Cn1nc(CC(=O)Nc2ccc(F)c(C(F)(F)F)c2)c2ccccc2c1=O
5. Cn1nc(CC(=O)Nc2ccc(C#N)cc2)c2ccccc2c1=O
6. Cn1nc(CC(=O)Nc2ccc(Br)c(Cl)c2)c2ccccc2c1=O
7. Cc1cc(NC(=O)Cc2nn(C)c(=O)c3ccccc23)ccc1Cl
8. COc1cc(NC(=O)Cc2nn(C)c(=O)c3ccccc23)ccc1Cl

stdout:
0.15
0.052
0.095
0.15
0.94
0.075
0.096
0.04

List the reported IC50 of each compound below.
1. Cn1nc(CC(=O)Nc2ccc(Br)cc2F)c2ccccc2c1=O
2. Cn1nc(CC(=O)Nc2ccc(Br)c(C(F)(F)F)c2)c2ccccc2c1=O
3. O=C(Cc1n[nH]c(=O)c2ccccc12)Nc1ccc(Cl)c(C(F)(F)F)c1
4. Cn1nc(CC(=O)Nc2ccc(Br)cc2)c2ccccc2c1=O
5. Cn1nc(CC(=O)Nc2ccc(Cl)cc2)c2ccccc2c1=O
6. Cn1nc(CC(=O)Nc2ccc(Cl)c(F)c2)c2ccccc2c1=O

stdout:
1: 1.7; 2: 0.048; 3: 0.061; 4: 0.13; 5: 0.28; 6: 0.24
